Molecular target: 5-hydroxytryptamine receptor 3A (Homo sapiens, UniProt P46098)
Sequence (P46098 whole entry): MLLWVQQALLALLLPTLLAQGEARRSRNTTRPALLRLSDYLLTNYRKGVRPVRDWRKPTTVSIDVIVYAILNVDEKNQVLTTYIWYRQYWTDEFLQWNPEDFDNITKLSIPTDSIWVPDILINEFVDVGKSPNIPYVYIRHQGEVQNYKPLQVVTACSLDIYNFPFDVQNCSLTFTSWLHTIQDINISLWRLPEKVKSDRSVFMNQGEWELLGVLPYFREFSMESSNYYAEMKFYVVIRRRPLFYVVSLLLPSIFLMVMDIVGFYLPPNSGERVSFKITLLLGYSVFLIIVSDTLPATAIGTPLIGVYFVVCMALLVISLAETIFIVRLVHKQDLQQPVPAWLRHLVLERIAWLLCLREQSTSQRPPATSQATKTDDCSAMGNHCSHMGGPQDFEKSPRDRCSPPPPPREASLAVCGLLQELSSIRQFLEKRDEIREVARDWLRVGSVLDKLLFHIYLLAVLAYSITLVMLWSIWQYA
Experiment: Displacement of [3H]LY278584 from human 5HT3 receptor expressed in HEK293 cells
readout: IC50

O=C(Oc1ccc(Br)cc1)N1CCN2CCC1CC2 [SSR180711]
> 3.16 µM

Now examine the next entry.
Q: Note down IC50 recorded for O=C(Oc1ccc2ccccc2c1)N1CCN2CCC1CC2
A: > 3.16 µM

---

Catalogue of concentration at 1 h values
Assay: Plasma concentration in Sprague-Dawley rat at 5 mg/kg, sc after 1 hr
Assay type: ADME, organism-based
Design: dose 5 mg/kg, route subcutaneous
// note: answer is a bare numeric in µg/mL

O=C(Oc1ccc(Br)cc1)N1CCN2CCC1CC2
0.648

Now examine the next entry.
Q: Note down concentration at 1 h recorded for O=C(Oc1ccc2ccccc2c1)N1CCN2CCC1CC2
A: 0.463

---

Catalogue of CLint scaled at 1 µM values
Assay: Intrinsic clearance in human liver microsomes at 1 uM at pH 7.4 after 30 mins
Assay type: ADME, Microsome

O=C(Oc1ccc2ccccc2c1)N1CCN2CCC1CC2
12 mL/min/kg

Q: Note down CLint scaled at 1 µM recorded for O=C(Oc1ccc(Br)cc1)N1CCN2CCC1CC2 [SSR180711]
A: < 6.8 mL/min/kg

---

Biological target: Neuronal acetylcholine receptor subunit alpha-7 (Rattus norvegicus)
Assay: Displacement of [125I]BTX from rat alpha7 nAChR expressed in rat GH4C1 cells
Catalogue of Ki values
// note: answer is a bare numeric in µM

O=C(Oc1ccccc1Br)N1CCN2CCC1CC2
0.725

Q: Please indicate recorded Ki of O=C(Oc1ccc(Cl)c(Cl)c1)N1CCN2CCC1CC2 measured with Neuronal acetylcholine receptor subunit alpha-7 (Rattus norvegicus).
A: 0.031

Q: Please indicate recorded Ki of O=C(Oc1cccc(F)c1)N1CCN2CCC1CC2 measured with Neuronal acetylcholine receptor subunit alpha-7 (Rattus norvegicus).
A: 0.035

Q: Please indicate recorded Ki of O=C(Oc1ccc(-c2ccncc2)cc1)N1CCN2CCC1CC2 measured with Neuronal acetylcholine receptor subunit alpha-7 (Rattus norvegicus).
A: 0.207

---

Catalogue of logD values
Test: Octanol-aqueous buffer partition coefficient, log D at pH 7.4
Format: physicochemical
Please reply with the number alone, leaving off any unit.

O=C(Oc1ccc2ccccc2c1)N1CCN2CCC1CC2
2.3

Q: Note down logD recorded for O=C(Oc1ccc(Br)cc1)N1CCN2CCC1CC2
A: 2.1

---

Catalogue of pIC50 values
Target: Neuronal acetylcholine receptor subunit alpha-3 (Homo sapiens)
Sequence (P32297 whole entry): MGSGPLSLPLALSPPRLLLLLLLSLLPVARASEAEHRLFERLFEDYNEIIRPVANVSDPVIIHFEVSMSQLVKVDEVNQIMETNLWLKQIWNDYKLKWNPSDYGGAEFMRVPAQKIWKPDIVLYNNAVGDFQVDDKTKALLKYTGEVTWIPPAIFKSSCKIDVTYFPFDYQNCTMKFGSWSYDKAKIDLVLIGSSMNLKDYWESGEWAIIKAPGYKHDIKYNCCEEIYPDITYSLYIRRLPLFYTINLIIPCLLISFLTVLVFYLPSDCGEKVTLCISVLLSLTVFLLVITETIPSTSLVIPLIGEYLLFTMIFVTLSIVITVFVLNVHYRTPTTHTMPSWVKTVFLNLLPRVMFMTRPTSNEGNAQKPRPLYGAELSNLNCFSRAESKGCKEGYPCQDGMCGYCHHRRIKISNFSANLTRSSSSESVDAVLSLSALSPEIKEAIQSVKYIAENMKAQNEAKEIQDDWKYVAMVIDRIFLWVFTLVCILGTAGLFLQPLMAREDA
Assay: Displacement of [3H]epibatidine from alpha3 nAChR in human IMR32 cells
A value of pIC50 is the negative decimal logarithm of a concentration given in moles per litre.

Known results for compounds:
O=c1c(Br)ccc2n1C[C@@H]1CNC[C@H]2C1
7.81
O=C(Oc1ccc2ccccc2c1)N1CCN2CCC1CC2
5.31
O=C(Oc1ccc(Cl)c(F)c1)N1CCN2CCC1CC2
5.00

Q: Note down pIC50 recorded for Cc1cc(OC(=O)N2CCN3CCC2CC3)ccc1Br
A: 5.40

Q: Note down pIC50 recorded for O=C(c1ccccc1)c1cc(OC(=O)N2CCN3CCC2CC3)ccc1Br
A: 5.86

Q: Note down pIC50 recorded for O=C(Oc1ccc(Br)c(Cl)c1)N1CCN2CCC1CC2
A: 5.68

---

Molecular target: Neuronal acetylcholine receptor; alpha4/beta2 (Rattus norvegicus, UniProt P09483+P12390)
Sequence (P09483 whole entry): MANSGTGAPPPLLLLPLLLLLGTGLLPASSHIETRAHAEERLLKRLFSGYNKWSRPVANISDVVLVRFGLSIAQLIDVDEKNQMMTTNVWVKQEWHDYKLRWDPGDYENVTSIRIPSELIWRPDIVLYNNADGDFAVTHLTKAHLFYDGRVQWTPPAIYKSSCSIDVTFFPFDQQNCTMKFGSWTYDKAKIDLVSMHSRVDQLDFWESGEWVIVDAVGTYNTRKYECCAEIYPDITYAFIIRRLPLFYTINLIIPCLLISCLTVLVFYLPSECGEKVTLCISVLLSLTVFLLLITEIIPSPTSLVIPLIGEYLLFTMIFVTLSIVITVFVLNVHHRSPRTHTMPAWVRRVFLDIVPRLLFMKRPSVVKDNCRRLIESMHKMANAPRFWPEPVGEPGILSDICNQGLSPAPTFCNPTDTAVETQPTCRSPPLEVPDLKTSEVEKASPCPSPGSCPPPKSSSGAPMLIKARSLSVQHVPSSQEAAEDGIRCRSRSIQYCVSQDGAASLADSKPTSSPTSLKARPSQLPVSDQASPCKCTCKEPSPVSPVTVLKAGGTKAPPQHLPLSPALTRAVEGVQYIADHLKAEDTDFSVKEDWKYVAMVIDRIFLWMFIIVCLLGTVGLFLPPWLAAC
Sequence (P12390 whole entry): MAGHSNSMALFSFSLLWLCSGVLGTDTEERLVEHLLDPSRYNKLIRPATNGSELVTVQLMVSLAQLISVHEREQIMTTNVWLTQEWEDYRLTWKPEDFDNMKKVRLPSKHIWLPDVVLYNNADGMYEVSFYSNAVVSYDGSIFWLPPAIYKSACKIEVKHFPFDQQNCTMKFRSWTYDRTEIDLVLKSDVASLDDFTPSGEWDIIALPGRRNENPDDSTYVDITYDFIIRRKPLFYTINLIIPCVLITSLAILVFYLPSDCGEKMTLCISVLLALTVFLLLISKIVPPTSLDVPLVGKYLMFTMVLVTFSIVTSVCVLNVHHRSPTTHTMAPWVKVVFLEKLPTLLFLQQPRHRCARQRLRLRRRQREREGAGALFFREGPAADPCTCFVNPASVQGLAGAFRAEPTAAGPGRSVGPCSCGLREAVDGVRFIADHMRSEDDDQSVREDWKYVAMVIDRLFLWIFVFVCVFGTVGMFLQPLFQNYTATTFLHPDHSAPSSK
Assay: Displacement of L-[3H]Nicotine from alpha4beta2 nAChR in rat brain homogenate by rapid filtration method
Threshold-based label: IC50 under 3 µM gives 1, IC50 not under 3 µM gives -1.

O=C(Oc1cccc(Cl)c1)N1CCN2CCC1CC2
-1
O=C(Oc1ccc(Br)cc1)N1CCN2CCC1CC2
-1
O=C(Oc1ccc(-c2cccnc2)cc1)N1CCN2CCC1CC2
-1
Cc1cc(OC(=O)N2CCN3CCC2CC3)ccc1Br
-1
O=C(c1ccccc1)c1cc(OC(=O)N2CCN3CCC2CC3)ccc1Br
1

Shift focus to the following entry.
Q: Item O=C(c1ccccc1)c1cccc(OC(=O)N2CCN3CCC2CC3)c1 : IC50 beneath 3 µM, strictly?
A: 1

---

Target: Neuronal acetylcholine receptor subunit alpha-7 (Rattus norvegicus) (UniProt Q05941)
Sequence (Q05941 whole entry): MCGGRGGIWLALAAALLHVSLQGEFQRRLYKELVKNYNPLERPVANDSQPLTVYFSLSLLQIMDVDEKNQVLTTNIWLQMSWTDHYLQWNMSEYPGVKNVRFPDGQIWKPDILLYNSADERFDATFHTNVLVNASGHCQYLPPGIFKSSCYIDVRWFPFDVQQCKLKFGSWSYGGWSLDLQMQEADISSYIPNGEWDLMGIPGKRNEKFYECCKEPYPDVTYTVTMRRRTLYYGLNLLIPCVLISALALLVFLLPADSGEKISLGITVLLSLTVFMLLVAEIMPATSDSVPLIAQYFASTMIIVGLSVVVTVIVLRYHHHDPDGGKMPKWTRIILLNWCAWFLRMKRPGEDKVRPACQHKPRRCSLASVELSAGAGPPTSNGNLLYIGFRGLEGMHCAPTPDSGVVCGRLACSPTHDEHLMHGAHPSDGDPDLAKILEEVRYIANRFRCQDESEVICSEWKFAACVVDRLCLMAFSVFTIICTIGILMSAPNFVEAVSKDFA
Test: Agonist activity at rat alpha7 nAChR expressed in Xenopus oocytes at 32 uM by two-electrode voltage clamp technique relative to nicotine
Format: functional, cell-based
Settings: Oocyte
Catalogue of Activity values
// note: answer is a bare numeric in %

Known results for molecules:
O=C(Oc1cccc(Oc2ccccc2)c1)N1CCN2CCC1CC2
40
O=C(c1ccccc1)c1ccc(OC(=O)N2CCN3CCC2CC3)cc1
35
O=C(Oc1ccc(Br)cc1)N1CCN2CCC1CC2 [SSR180711]
158

Q: Please indicate recorded Activity of Cc1cccc(OC(=O)N2CCN3CCC2CC3)c1 measured with Neuronal acetylcholine receptor subunit alpha-7 (Rattus norvegicus) (UniProt Q05941).
A: 46

Q: Please indicate recorded Activity of COc1cccc(OC(=O)N2CCN3CCC2CC3)c1 measured with Neuronal acetylcholine receptor subunit alpha-7 (Rattus norvegicus) (UniProt Q05941).
A: 26

Q: Please indicate recorded Activity of O=C(Cc1ccc(Br)cc1)N1CCN2CCC1CC2 measured with Neuronal acetylcholine receptor subunit alpha-7 (Rattus norvegicus) (UniProt Q05941).
A: 1.7

Q: Please indicate recorded Activity of O=C(Oc1ccc(F)cc1)N1CCN2CCC1CC2 measured with Neuronal acetylcholine receptor subunit alpha-7 (Rattus norvegicus) (UniProt Q05941).
A: 100

Q: Please indicate recorded Activity of O=C(Oc1ccc(Cl)cc1)N1CCN2CCC1CC2 measured with Neuronal acetylcholine receptor subunit alpha-7 (Rattus norvegicus) (UniProt Q05941).
A: 145

Q: Please indicate recorded Activity of O=C(c1ccccc1)c1cccc(OC(=O)N2CCN3CCC2CC3)c1 measured with Neuronal acetylcholine receptor subunit alpha-7 (Rattus norvegicus) (UniProt Q05941).
A: 98

Q: Please indicate recorded Activity of COc1ccc(OC(=O)N2CCN3CCC2CC3)cc1 measured with Neuronal acetylcholine receptor subunit alpha-7 (Rattus norvegicus) (UniProt Q05941).
A: 126

Q: Please indicate recorded Activity of O=C(Oc1ccc(Cl)c(F)c1)N1CCN2CCC1CC2 measured with Neuronal acetylcholine receptor subunit alpha-7 (Rattus norvegicus) (UniProt Q05941).
A: 110

---

Catalogue of Ki values
Target: Neuronal acetylcholine receptor subunit alpha-7 (Rattus norvegicus)
Assay: Displacement of [125I]BTX from rat alpha7 nAChR expressed in rat GH4C1 cells
// note: answer is a bare numeric in nM

O=C(Oc1cccc(-c2ccccc2)c1)N1CCN2CCC1CC2
9
Cc1cccc(OC(=O)N2CCN3CCC2CC3)c1
25
O=C(Oc1ccc(Br)cc1)N1CCCN2CCC1CC2
383
O=C(c1ccccc1)c1ccc(OC(=O)N2CCN3CCC2CC3)cc1
95

Now examine the next entry.
Q: Note down Ki recorded for O=C(Oc1ccccc1)N1CCN2CCC1CC2
A: 739

---

Molecular target: Neuronal acetylcholine receptor subunit alpha-7 (Rattus norvegicus, UniProt Q05941)
Sequence (Q05941 whole entry): as above
Test: Displacement of [125I]BTX from rat alpha7 nAChR expressed in rat GH4C1 cells
readout: Ki

Known results for compounds:
O=S(=O)(c1ccc(Br)cc1)N1CCN2CCC1CC2
> 4720 nM
O=C(Oc1cccc(Oc2ccccc2)c1)N1CCN2CCC1CC2
13 nM
CN1CCCN(C(=O)Oc2ccc(Br)cc2)CC1
> 5710 nM
C[C@@H]1CN(C(=O)Oc2ccc(Br)cc2)[C@@H](C)CN1
> 5000 nM
O=C(Oc1ccc(Br)c(Cl)c1)N1CCN2CCC1CC2
33 nM
O=C(OCc1ccccc1)N1CCN2CCC1CC2
3350 nM
COc1cccc(OC(=O)N2CCN3CCC2CC3)c1
79 nM
O=C(Oc1ccc(Br)cc1)N1CCN2CCC(CC2)C1
763 nM

Q: Please indicate recorded Ki of Cc1cc(OC(=O)N2CCN3CCC2CC3)ccc1Br measured with Neuronal acetylcholine receptor subunit alpha-7 (Rattus norvegicus, UniProt Q05941).
A: 50 nM

Q: Please indicate recorded Ki of O=C(Oc1ccc(Oc2ccccc2)cc1)N1CCN2CCC1CC2 measured with Neuronal acetylcholine receptor subunit alpha-7 (Rattus norvegicus, UniProt Q05941).
A: 212 nM

Q: Please indicate recorded Ki of O=C(Oc1cccc(Cl)c1)N1CCN2CCC1CC2 measured with Neuronal acetylcholine receptor subunit alpha-7 (Rattus norvegicus, UniProt Q05941).
A: 32 nM

Q: Please indicate recorded Ki of O=C(Oc1ccc(-c2ccccc2)cc1)N1CCN2CCC1CC2 measured with Neuronal acetylcholine receptor subunit alpha-7 (Rattus norvegicus, UniProt Q05941).
A: 215 nM

---

Biological target: Neuronal acetylcholine receptor; alpha4/beta2 (Rattus norvegicus, UniProt P09483+P12390)
Assay: Displacement of L-[3H]Nicotine from alpha4beta2 nAChR in rat brain homogenate by rapid filtration method
readout: IC50 (µM)
// note: answer is a bare numeric in µM

Q: Note down IC50 recorded for O=C(Oc1ccccc1)N1CCN2CCC1CC2
A: 1.04

Q: Note down IC50 recorded for O=C(Oc1ccc(Cl)c(F)c1)N1CCN2CCC1CC2
A: 6.98

Q: Note down IC50 recorded for O=C(Oc1ccc2ccccc2c1)N1CCN2CCC1CC2
A: 9.88

Q: Note down IC50 recorded for O=C(Oc1ccc(F)cc1)N1CCN2CCC1CC2
A: 1.78
